// data source = the supplement of paper PMC9588766

system: PDC-DUC18828; assay: cell viability relative to DMSO control (compound alone) (fraction); higher = less growth inhibition; conditions: 1 µM; 72 h
Over roughly 2,000 compounds, “cell viability relative to DMSO control (compound alone)” has its median near 0.98; the lowest 2% begin near 0.23. The list comes from a sample in which the lowest values are over-represented; it also holds close analogues and randomly drawn compounds.
Listing of recorded cell viability by entry.
measured_endpoint: cell viability

CCOc1cc(C(C)(C)C)ccc1C1=N[C@@](C)(c2ccc(Cl)cc2)[C@@](C)(c2ccc(Cl)cc2)N1C(=O)N1CCN(CCCS(C)(=O)=O)CC1 = 0.912
Cc1cc(C(=O)NOCCO)c(Nc2ccc(I)cc2F)n(C)c1=O = 0.559
C=CC(C)(C)c1cc(/C=C/C(=O)c2ccc(O)cc2)c(OC)cc1O = 0.982
Cc1c(C(=O)Nc2ccc(Oc3ccnc4[nH]cc(-c5ccccc5)c34)c(F)c2)c(=O)n(-c2ccc(F)cc2)n1C = 0.795
Clc1ccc(C(Cn2ccnc2)OCc2ccc(Sc3ccccc3)cc2)c(Cl)c1 (stereo not drawn) [Fenticonazole Nitrate] = 1.03
O=C(O)c1ccc(N2C(=O)/C(=C\c3ccc(-c4ccc([N+](=O)[O-])cc4)o3)C=C2c2ccccc2)cc1 = 0.942
NC(=O)c1cnc2[nH]ccc2c1N[C@@H]1[C@@H]2CC3C[C@H]1C[C@@](O)(C3)C2 = 0.832
O=C(/C=C\n1cnc(-c2cc(C(F)(F)F)cc(C(F)(F)F)c2)n1)NNc1ccccn1 [Verdinexor (KPT-335)] = 0.407

---

system: PDC-DUC18828; experiment: cell viability relative to DMSO control (compound alone) (fraction); higher = less growth inhibition; settings: 1 µM; 72 h
Whole data set: some 2,000 compounds, median “cell viability relative to DMSO control (compound alone)” near 0.98, cut for the lowest 2% near 0.23. This excerpt belongs to a sample that is enriched for the lowest values.
Listing of recorded cell viability by entry.
measured_endpoint: cell viability

C=CCc1ccc(O)c(-c2cc(CC=C)ccc2O)c1 [Magnolol] = 1.02
Nc1cccc(S(=O)(=O)N2CCCN(S(=O)(=O)c3ccc4c(c3)OCCO4)CC2)c1 = 1.05
CC(=O)c1cc([N+](=O)[O-])c(Sc2cccc(Cl)c2Cl)s1 = 1.08
O=C(/C=C\n1cnc(-c2cc(C(F)(F)F)cc(C(F)(F)F)c2)n1)N1CC(F)(F)C1 = 0.591
O=S(=O)(NCCSSCCNS(=O)(=O)c1cc(Cl)ccc1Cl)c1cc(Cl)ccc1Cl = 0.961
CC1(C)CCC(c2ccc(Cl)cc2)=C(CN2CCN(c3ccc(C(=O)NS(=O)(=O)c4ccc(N[C@H](CCN5CCOCC5)CSc5ccccc5)c(S(=O)(=O)C(F)(F)F)c4)cc3)CC2)C1 [ABT-263 (Navitoclax)] = 0.782
Cc1ccc(-c2c(-c3nn(C)c4ncnc(N5CC[C@H](N6CCCCC6)C5)c34)cnn2C)cc1 = 1.01
O=C1c2ccccc2C(=O)c2c1ccc(O)c2O [Alizarin] = 0.993
CC(=O)c1cc2c(o1)C(=O)c1ccccc1C2=O [Napabucasin] = 0.0105

---

tested on: PDC-DUC18828; assay: cell viability relative to DMSO control (compound alone) (fraction); higher = less growth inhibition; conditions: 1 µM; 72 h
In all, about 2,000 compounds were measured (“cell viability relative to DMSO control (compound alone)”: median about 0.98, lowest 2% from about 0.23 on). The sample holds the lowest values, similar compounds and a random draw of the others, so the mix is not that of the screen.
Hi! Just check whether cell viability is below 1. Below gives Met, equal or above gives Not met.

CC#CC(=O)Nc1ccc2ncnc(Nc3cccc(Br)c3)c2c1 = Met
O=C(Cc1ccccc1)Nc1nnc(CCSCCc2nnc(NC(=O)Cc3ccccc3)s2)s1 = Met
CC(C)(O)[C@H]1CC[C@@](C)([C@H]2[C@@H](O)C[C@@]3(C)[C@@H]4C[C@H](O[C@@H]5O[C@H](CO)[C@@H](O)[C@H](O)[C@H]5O)[C@H]5C(C)(C)[C@@H](O[C@@H]6OC[C@@H](O)[C@H](O)[C@H]6O)CC[C@@]56C[C@@]46CC[C@]23C)O1 [Astragaloside A] = Met
CC(=O)Nc1cccc2c1c(Sc1ccc(Cl)cc1)c(C)n2CC(=O)O = Not met
CCCCC(C=O)NC(=O)C(CC(C)C)NC(=O)C(CC(C)C)NC(C)=O (configuration not stated) = Met

---

system: PDC-DUC18828; experiment: cell viability relative to DMSO control (compound alone) (fraction); higher = less growth inhibition; conditions: 1 µM; 72 h
Counter-ions that a name gives are not always drawn. Whole data set: some 2,000 compounds, median “cell viability relative to DMSO control (compound alone)” near 0.98, cut for the lowest 2% near 0.23. The sample as a whole holds a higher share of the lowest values than the screen did.
Hi! Just check whether cell viability is below 1. Below gives 1, equal or above gives -1.

O=C(Nc1ccccc1)c1ccccc1O [Salicylanilide] = -1
CCc1c(C(=O)NCCc2ccc(N3CCCCC3)cc2)[nH]c2ccc(Cl)cc12 = -1
Cc1noc(C)c1-c1ccc(-c2cc(C(N)=O)c(NC(N)=O)s2)c(O[C@H]2CCNC2)c1 = 1
CC(ONC(=O)c1cc(C(F)(F)F)cc(C(F)(F)F)c1)C(=O)Nc1ccc(Cl)cc1 (centres undefined) = 1
CN1CCN(CCCNc2ncc(Cl)c(-c3cc4c(C(=O)NC5CC5)cccc4s3)n2)CC1 = 1
O=C(Nc1cc(C(F)(F)F)cc(C(F)(F)F)c1)c1cc(Cl)ccc1O = 1
NCCCCCNCC12CC3CC(CC(C3)C1)C2 [IEM 1754 dihydrobroMide] = 1
O=C(O)c1ccccc1 = -1
COCC[n+]1c2c(n(Cc3cnccn3)c1C)C(=O)c1ccccc1C2=O [YM155 (Sepantronium Bromide)] = 1
CNC1CCC(N(Cc2cccc(-c3ccncc3)c2)C(=O)c2sc3ccccc3c2Cl)CC1 (centres undefined) [Smoothened Agonist (SAG) HCl] = 1
O=C(O)CCNC(=O)c1ccccc1 = 1
CN(C[C@@H]1COCCO1)S(=O)(=O)Nc1ccc2ccc3ncc(-c4cnn(C)c4)cc3c(=O)c2c1 = 1
O=C(Nc1cccc2cccnc12)c1ccc(N2C(=O)[C@@H]3[C@H](C2=O)[C@@H]2C=C[C@H]3C2)cc1 [IWR-1-endo] = 1

---

tested on: PDC-DUC18828; assay: cell viability relative to DMSO control (compound alone) (fraction); higher = less growth inhibition; conditions: 1 µM; 72 h
Over roughly 2,000 compounds, “cell viability relative to DMSO control (compound alone)” has its median near 0.98; the lowest 2% begin near 0.23. The list comes from a sample in which the lowest values are over-represented; it also holds close analogues and randomly drawn compounds.
measured_endpoint: cell viability

CN(C)c1ccc(-c2nc3ncc(Cl)c(N4CCN(CC(=O)Nc5nccs5)CC4)c3[nH]2)cc1 = 0.946
O=C(NOCC1CC1)c1ccc(F)c(F)c1Nc1ccc(I)cc1Cl = 0.929
Cc1cc([N+](=O)[O-])ccc1NS(=O)(=O)c1cc(Cl)ccc1Cl = 0.903
CC(C)C[C@H](NC(=O)CNC(=O)c1cc(Cl)ccc1Cl)B1OC(=O)C(CC(=O)O)(CC(=O)O)O1 = 0.0219
CCCC(C)NC(=O)c1ccc(Cl)c(Cl)c1 (configuration not stated) = 1.01
CCS(=O)(=O)N1CCC([C@@H](C)n2c(C)c(C(=O)NCc3c(OC)cc(C)[nH]c3=O)c3ccccc32)CC1 = 0.974
C=CCc1ccc(O)c(-c2ccc(O)c(CC=C)c2)c1 [Honokiol] = 0.985
CC(C=CC(=O)NO)=CC(C)C(=O)c1ccc(N(C)C)cc1 (configuration not stated) [Trichostatin A (TSA)] = 0.15
CN(C)CC[C@H](CSc1ccccc1)Nc1ccc(S(=O)(=O)NC(=O)c2ccc(N3CCN(Cc4ccccc4-c4ccc(Cl)cc4)CC3)cc2)cc1[N+](=O)[O-] = 0.829
O=C([C@@H](Cc1cccc(C(F)(F)F)c1)NS(=O)(=O)c1cc(F)c2c(c1)CCNC2)N1CCCC1 = 1.01
CC(C)C[C@H](NC(=O)CNC(=O)c1cc(Cl)ccc1Cl)B(O)O = 0.0177
CC[C@H](C)n1cc(C)c2c(C(=O)NCc3c(C)cc(C)[nH]c3=O)cc(-c3ccc(N4CCNCC4)nc3)cc21 = 0.969

---

tested on: PDC-DUC18828; test: cell viability relative to DMSO control (compound alone) (fraction); PDC-DUC18828 is a patient-derived cholangiocarcinoma cell line; higher = less growth inhibition; conditions: 1 µM; 72 h
The full ranking holds about 2,000 compounds; the median of “cell viability relative to DMSO control (compound alone)” is about 0.98, and the lowest 2% start at about 0.23. The sample holds the lowest values, similar compounds and a random draw of the others, so the mix is not that of the screen.
measured_endpoint: cell viability

Cc1ccc(NCCCc2ccccc2)c(N)c1 = 0.974
N[C@H]1C[C@@H]1c1ccc(-c2cccc(O)c2)cc1 = 1.02
COCC(=O)NC/C=C/c1ccc2ncnc(Nc3ccc(Oc4ccc(C)nc4)c(C)c3)c2c1 = 0.962
CC[C@@]1(O)C(=O)OCc2c1cc1n(c2=O)Cc2cc3cc(O)ccc3nc2-1 [(S)-10-Hydroxycamptothecin] = 0.0902
COc1ccc(CNC(=O)Nc2ncc([N+](=O)[O-])s2)cc1 = 0.975
CNC(=O)c1cc(Oc2ccc3nc(N[C@@H]4CCCC[C@H]4O)sc3c2)ccn1 = 0.988
CCOc1cc(C(=O)N2CCC(N3CCN(C)CC3)CC2)ccc1Nc1ncc2c(n1)N(C1CCCC1)c1ccccc1C(=O)N2C = 0.959
CCc1c2c(nc3ccc(O)cc13)-c1cc3c(c(=O)n1C2)COC(=O)[C@]3(O)CC = 0.118
C[C@H](N[C@@H](CCc1ccccc1)C(=O)O)C(=O)N1CCC[C@H]1C(=O)O [Enalaprilat Dihydrate] = 1.03
